Entries and their 8OG:A repair function score values follow.
B1: library; numbered along this chain (parent)
chain: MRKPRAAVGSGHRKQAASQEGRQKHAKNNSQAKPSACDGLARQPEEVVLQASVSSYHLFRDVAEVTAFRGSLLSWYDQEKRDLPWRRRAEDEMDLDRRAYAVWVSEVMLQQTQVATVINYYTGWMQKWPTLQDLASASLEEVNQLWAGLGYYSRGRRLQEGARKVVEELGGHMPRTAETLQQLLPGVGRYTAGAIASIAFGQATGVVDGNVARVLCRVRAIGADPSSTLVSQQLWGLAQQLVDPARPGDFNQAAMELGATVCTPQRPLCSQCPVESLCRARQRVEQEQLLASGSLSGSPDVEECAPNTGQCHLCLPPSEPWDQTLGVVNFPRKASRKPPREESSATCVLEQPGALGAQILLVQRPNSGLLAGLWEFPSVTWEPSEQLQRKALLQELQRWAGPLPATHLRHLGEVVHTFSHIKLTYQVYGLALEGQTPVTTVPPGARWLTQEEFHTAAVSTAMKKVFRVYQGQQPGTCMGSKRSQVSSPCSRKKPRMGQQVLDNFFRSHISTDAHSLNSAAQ

# Variants of: B1
# Test Name: 8OG:A repair function score (normalized; synonymous = 0, nonsense = -1) (normalized log-likelihood score); higher = more repair activity (WT-like);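 note: cells sorted at 72 h after reporter transfection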
# Measurement Parameters: with 8OG:A DNA repair reporter (GFP) in HEK-293 MUTYH KO cells
// keep it numeric: no unit symbol after the value

A259W    -0.859

[Q] Kindly indicate its recorded 8OG:A repair function score. Item: `C216W`
[A] -1

[Q] Return reported 8OG:A repair function score. Input variant: `W447N`
[A] -0.921

[Q] Check the records and state 8OG:A repair function score for `P331G`
[A] -0.0671

[Q] Using known records, supply 8OG:A repair function score for `G444M`
[A] -0.298

[Q] Specify 8OG:A repair function score for `V348Y` and stop.
[A] -1.02

[Q] Determine from records and report 8OG:A repair function score for `G155D`
[A] -0.75
